- Assay Text: Metabolic stability in human hepatocytes assessed as hepatic clearance at 10 uM measured after 120 mins by LC-MS analysis
- Type: ADME, cell-based, Hepatocyte
Reported Endpoint: CLhep predicted at 10 µM (mL/min/kg)
Please give a number only; it is taken to be in mL/min/kg.

Query "O=c1c2ccncc2nc(Cl)n1-c1ccc(Cl)c(NS(=O)(=O)c2ccccc2F)c1" yields CLhep predicted at 10 µM of 18.6

----------
# Lookup of reported half-life at 1.25 µM keyed by entry
- Assay Text: Metabolic stability in human liver microsomes assessed as half life at 1.25 uM preincubated for 5 mins followed by NADPH addition measured upto 120 mins by LC-MS/MS analysis
- Format: ADME, Microsome
- Study Conditions: time < 125 min

Entry "O=c1c2nc(Cl)ccc2nc(Cl)n1-c1ccc(Cl)c(NS(=O)(=O)c2ccccc2F)c1" — recorded half-life at 1.25 µM = 1.73 h

So, "O=c1c2cc(Cl)cnc2nc(Cl)n1-c1ccc(Cl)c(NS(=O)(=O)c2ccccc2F)c1" ? Its half-life at 1.25 µM was 0.467 h

compound "O=c1c2cc(Cl)ncc2nc(Cl)n1-c1ccc(Cl)c(NS(=O)(=O)c2ccccc2F)c1" , half-life at 1.25 µM observed: 1.92 h

Recorded half-life at 1.25 µM (compound "O=c1c2ccncc2nc(Cl)n1-c1ccc(Cl)c(NS(=O)(=O)c2ccccc2F)c1" ): > 3.11 h

----------
In this section, each of the compounds is paired with its reported inhibition.
- Assay System: Nucleotide-binding oligomerization domain-containing protein 2 (Mus musculus) (UniProt Q8K3Z0)
- Sequence (Q8K3Z0 whole entry, the tested form may be a part): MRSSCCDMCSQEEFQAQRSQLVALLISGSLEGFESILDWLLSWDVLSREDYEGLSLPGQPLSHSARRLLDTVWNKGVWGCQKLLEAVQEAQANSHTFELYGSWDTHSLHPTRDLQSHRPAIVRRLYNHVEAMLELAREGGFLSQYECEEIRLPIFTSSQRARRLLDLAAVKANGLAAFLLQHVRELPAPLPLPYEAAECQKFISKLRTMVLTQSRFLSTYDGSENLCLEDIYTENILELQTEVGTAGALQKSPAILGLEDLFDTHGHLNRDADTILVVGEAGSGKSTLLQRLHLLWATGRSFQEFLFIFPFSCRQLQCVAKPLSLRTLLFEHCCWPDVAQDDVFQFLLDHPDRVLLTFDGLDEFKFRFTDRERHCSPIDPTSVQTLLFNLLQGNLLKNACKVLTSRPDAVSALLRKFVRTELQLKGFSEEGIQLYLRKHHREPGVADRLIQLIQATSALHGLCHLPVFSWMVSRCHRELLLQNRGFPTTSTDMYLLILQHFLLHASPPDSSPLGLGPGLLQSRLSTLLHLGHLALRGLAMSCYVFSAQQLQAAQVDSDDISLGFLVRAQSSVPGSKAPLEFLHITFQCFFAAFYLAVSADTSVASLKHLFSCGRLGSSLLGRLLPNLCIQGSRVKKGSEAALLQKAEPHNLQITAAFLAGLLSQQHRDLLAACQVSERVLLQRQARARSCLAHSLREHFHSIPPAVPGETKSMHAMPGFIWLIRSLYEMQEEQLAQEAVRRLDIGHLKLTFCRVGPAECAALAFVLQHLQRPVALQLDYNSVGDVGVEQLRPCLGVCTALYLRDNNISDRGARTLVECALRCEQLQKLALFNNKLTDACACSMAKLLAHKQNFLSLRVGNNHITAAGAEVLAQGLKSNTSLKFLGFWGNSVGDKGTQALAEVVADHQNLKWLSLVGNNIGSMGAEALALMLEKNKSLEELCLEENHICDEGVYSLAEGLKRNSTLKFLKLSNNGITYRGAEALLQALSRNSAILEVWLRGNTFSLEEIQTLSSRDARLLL
- Assay Text: Inhibition of mouse NOD2 at 1 uM relative to control

Documented inhibition of "N#Cc1ccc2nc(Cl)n(-c3ccc(Cl)c(NS(=O)(=O)c4c(F)cccc4F)c3)c(=O)c2c1" : 20.2%

----------
Catalogue of inhibition readings, one per entry.
- Assay System: Receptor-interacting serine/threonine-protein kinase 2 (Homo sapiens) (UniProt O43353)
- Sequence (O43353 whole entry): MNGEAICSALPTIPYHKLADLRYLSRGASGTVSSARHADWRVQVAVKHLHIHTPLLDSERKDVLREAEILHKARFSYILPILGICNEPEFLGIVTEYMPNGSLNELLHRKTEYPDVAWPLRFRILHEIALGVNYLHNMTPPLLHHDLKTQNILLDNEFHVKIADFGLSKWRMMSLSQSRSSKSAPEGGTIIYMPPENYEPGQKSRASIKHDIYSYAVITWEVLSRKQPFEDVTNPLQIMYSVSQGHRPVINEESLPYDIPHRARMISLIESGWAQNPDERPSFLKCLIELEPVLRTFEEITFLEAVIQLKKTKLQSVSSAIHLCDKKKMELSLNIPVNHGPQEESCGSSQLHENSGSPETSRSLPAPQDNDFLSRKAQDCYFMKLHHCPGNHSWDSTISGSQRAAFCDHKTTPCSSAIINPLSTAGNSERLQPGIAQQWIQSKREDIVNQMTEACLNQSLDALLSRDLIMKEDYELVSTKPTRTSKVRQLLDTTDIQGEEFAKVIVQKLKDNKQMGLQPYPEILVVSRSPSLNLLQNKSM
- Assay Text: Inhibition of RIP2 (unknown origin) at 10 uM relative to control
Please respond with the number in % and leave the unit unwritten.

- Compound Smiles: "CS(=O)(=O)c1ccc2nc(Cl)n(-c3ccc(Cl)c(NS(=O)(=O)c4c(F)cccc4F)c3)c(=O)c2c1"
  Assay System: "Receptor-interacting serine/threonine-protein kinase 2 (Homo sapiens) (UniProt O43353)"
  Quantity Unit: "%"
  inhibition: 11.4

Attention now shifts to the item below.
inhibition reading for "CS(=O)(=O)c1ccc2nc(Cl)n(-c3ccc(Cl)c(NS(=O)(=O)c4ccc5ncsc5c4)c3)c(=O)c2c1" : 10.5

----------
- Assay System: Nucleotide-binding oligomerization domain-containing protein 1 (Mus musculus)
- Sequence (whole entry): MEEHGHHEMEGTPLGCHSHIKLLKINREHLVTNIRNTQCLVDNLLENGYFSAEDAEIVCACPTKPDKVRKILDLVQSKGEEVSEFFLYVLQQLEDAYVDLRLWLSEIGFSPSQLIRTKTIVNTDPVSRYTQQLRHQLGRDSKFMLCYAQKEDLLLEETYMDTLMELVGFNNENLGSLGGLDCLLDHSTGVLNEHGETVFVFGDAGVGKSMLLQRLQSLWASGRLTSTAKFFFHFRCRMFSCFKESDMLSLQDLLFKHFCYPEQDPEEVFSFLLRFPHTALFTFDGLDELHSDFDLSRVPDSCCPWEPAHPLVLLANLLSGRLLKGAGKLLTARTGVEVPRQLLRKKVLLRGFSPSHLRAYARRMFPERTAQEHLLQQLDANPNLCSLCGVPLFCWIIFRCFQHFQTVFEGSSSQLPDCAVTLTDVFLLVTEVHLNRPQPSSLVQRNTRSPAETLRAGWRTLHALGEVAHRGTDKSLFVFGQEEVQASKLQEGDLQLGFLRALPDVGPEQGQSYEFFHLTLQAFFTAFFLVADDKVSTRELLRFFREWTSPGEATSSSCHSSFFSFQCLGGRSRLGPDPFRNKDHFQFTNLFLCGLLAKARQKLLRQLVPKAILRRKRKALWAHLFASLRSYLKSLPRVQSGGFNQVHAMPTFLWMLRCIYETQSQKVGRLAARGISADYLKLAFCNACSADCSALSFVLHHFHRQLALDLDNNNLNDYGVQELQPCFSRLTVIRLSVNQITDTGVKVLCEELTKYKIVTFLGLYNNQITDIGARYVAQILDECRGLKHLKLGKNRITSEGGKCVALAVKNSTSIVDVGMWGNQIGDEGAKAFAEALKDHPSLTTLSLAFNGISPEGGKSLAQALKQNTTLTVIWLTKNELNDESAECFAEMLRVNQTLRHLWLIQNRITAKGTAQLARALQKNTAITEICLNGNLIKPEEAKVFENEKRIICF
- Assay Text: Antagonist activity at mouse NOD1 expressed in HEK-Blue cells assessed as decrease in SEAP secretion at 5 uM incubated for 3 hrs followed by C12-iE-DAP stimulation for 20 hrs by spectrophotometry relative to control
- Type: cell-based
- Study Conditions: HEK-Blue mNOD1, filed as antagonist, time 23.0 hrs
Reported Endpoint: inhibition
Could you give the number and then its unit, please?

Below, each entry is followed by its recorded inhibition result.
- Compound Smiles: "Cc1nc2ccc(Cl)cc2c(=O)n1-c1ccc(Cl)c(NS(=O)(=O)c2ccccc2F)c1"
  inhibition: "49.4%"
- Compound Smiles: "O=c1c2cc(Cl)ccc2nc(C(F)(F)F)n1-c1ccc(Cl)c(NS(=O)(=O)c2ccccc2F)c1"
  inhibition: "73.2%"
- Compound Smiles: "O=c1c2cc(Cl)ccc2nc(Cl)n1-c1ccc(Cl)c(NS(=O)(=O)c2ccccc2F)c1"
  inhibition: "67.4%"

Measured inhibition of "O=c1c2cc(Cl)ccc2nc(NCCCN2CCOCC2)n1-c1ccc(Cl)c(NS(=O)(=O)c2ccccc2F)c1" : 46.5%

inhibition measured on "NC(=O)c1nc2ccc(Cl)cc2c(=O)n1-c1ccc(Cl)c(NS(=O)(=O)c2ccccc2F)c1" = 48.2%

The recorded inhibition for entry "C=CC(=O)Nc1nc2ccc(Cl)cc2c(=O)n1-c1ccc(Cl)c(NS(=O)(=O)c2ccccc2F)c1" equals 53.3%

Entry source: ChEMBL document CHEMBL6074678
